Assay: yeast display, Sf9 membrane polyspecificity reagent, FACS + sequencing; frameworks hold sequencing errors
propertyLabel: polyreactivity (PSR sort gate)

// solved cases for polyreactivity (PSR sort gate) follow
# orderedResidues, result
data = [
    ("QVQLVESGGGLVQAGGSLRLSCAASGFTYRNYAMGWYRQAPGKERELVAAISRGGGSTYYADSVKGRFTISRDNAKNTVYLQMNSLKPEDTAVYYCAVAYPFYVKTLFSPEADYNYWGQGTQVTVSS", "high polyreactivity"),
    ("QVQLVESGGGLVQAGGSLRLSCAASGSTFFRNAMGWYRQAPGKERELVAAISKSGTSTYYADSVKGRFTISRDNAKNTVYLQMNSLKPEDTAVYYCAKYGFSYPQSYAYYYWGQGTQVTVSS", "high polyreactivity"),
    ("QVQLVESGGGLVQAGGSLRLSCAASGRISLYYTMGWYRQAPGKEREFVAAISSTGGSTYYADSVKGRFTISRDNAKNTVYLQMNSLKPEDTAVYYCAKAYHATSDYWGQGTQVTVSS", "low polyreactivity"),
    ("QVQLVESGGGLVQAGGSLRLSCAASGSTFEYNAMGWYIQAPGKERELVASSTNYADSVKGRFTISRDNANNTVYLQMNSLKPEDTAVYYCAREQCVNRNHDYWGQGTQVTVSS", "low polyreactivity"),
    ("QVQLVESGGGLVQAGGSLRLSCAASGSIFTLYAMGWYRQAPGKERELVAAIDSGGNTNYADSVKGRFTISRDNAKNTVYLQMNSLKPEDTAVYYCAKRHATEFDYWGQGTQVTVSS", "low polyreactivity"),
]

Then there is this sequence:
Form: sequence = QVHLVESGGGLVQAGGSLRLSCAASGLIFVDNAMGWYRQAPGKERELVAAIDSGGSTNYADSVKGRFTISRDNEKNTVYLQMNSLKTEDTAVYYCAADWIYAPWYYQECVEYYYWGQGTQVTVSS ; polyreactivity (PSR sort gate) = low polyreactivity

###

Assay: yeast display, Sf9 membrane polyspecificity reagent, FACS + sequencing; frameworks hold sequencing errors
propertyLabel: polyreactivity (PSR sort gate)

# orderedResidues, propertyLabel, result
rows = [
    ("QVQLVESGGGLVQAGGSLRLICAASGSTFIINAMGWYRQAPGKERELVARITQRGTSTFYADSVKGRFTISRDNAKNTVYLQMNSLKPDDTAVYYCAGRGSNSLGNKYDYWGQGTQVTVSS", "polyreactivity (PSR sort gate)", "high polyreactivity"),
    ("QVQLVESGGGLDQAGGSLRLRCAASGSTFLINAMGWYRQAPGKESELVAAISSSSGNTYYADSVKWRFTISRDNAKNTVYLQMNSLKPEDTAVYYCKAVFTRGVTQYDHYYWGQGTQVTVSS", "polyreactivity (PSR sort gate)", "high polyreactivity"),
    ("QVQLVESGGGLVQAGGSLRLSCAASGITFRSYAMGWYRQAPGKDRELVAAISRTGGRTYYADSVKGRFTISRDNAKNTVYLQMNTLKAEDTAVYYCAAGGYSPYSLVGYDYWGQGTQVTVSS", "polyreactivity (PSR sort gate)", "high polyreactivity"),
]

###

Assay: yeast display, Sf9 membrane polyspecificity reagent, FACS + sequencing; frameworks hold sequencing errors
propertyLabel: polyreactivity (PSR sort gate)

# orderedResidues, propertyLabel, result
measured = [
    ("QVQLVESGGGLVQAGGILRLSCAASGFIFRKYAMGWYRQAPGKERELVAAINKSGGSTYYADSVKGRFTISRDNAKNTVYLQMNSLKPEDSAVYYCATVRTYRPPVRRGYWGQGTLVTVSS", "polyreactivity (PSR sort gate)", "high polyreactivity"),
    ("QVQLVESGGGLVQAGGSLRLSCAASGNIFYRYAMGWYRQAPGKERELVAAISGNSGNTYYADSVKGRFTISRDNAKNSVYLQMNSLKPEDTAVYYCAARPYYSYAGSGGYWGQGTQVTLSS", "polyreactivity (PSR sort gate)", "high polyreactivity"),
    ("QDQLVESGGGLVQAGGSLRLSCAASGSIFTDNVMGWYRQATGKERELVAAITSTGGNTYYADSVKGRFTISRDNAKNTVYLQMNSLKREDTAVYYSNKDVARYPYGKFDYWGQGTQVTVSS", "polyreactivity (PSR sort gate)", "low polyreactivity"),
    ("QVQLVESGGGLVQAVGSLRLSCAASGYTFVIYAMGWYRQAPGKERELVAAITTIGGRTYYADSVKGRFTISRDNAKNTVYLQMISLKPEDTAVYYCAADIRSNRLYDGGYWGLGTQVTVSS", "polyreactivity (PSR sort gate)", "low polyreactivity"),
    ("QVQLVESGGGLVQAGGSLRLSCAASGITFRSYAMGWYRQAPGKERELVAAISTSGGRTYYADSVKGRFTISRDNAKNTVYLQMNSLKPEDTAVYYCNKVGAVYGYYAYGLGYWGQGTQVTVSS", "polyreactivity (PSR sort gate)", "high polyreactivity"),
    ("QVQLVESGGGLVQAGGSLRLSCAASGNIFSAYAMGWYRQAPGTERELVAAISRSVTITYYADSVKGRFTISRDNAKKTDYLQMNSLKPEDTAVYYCAARDYHYPKFGYCGQGTQVTVSS", "polyreactivity (PSR sort gate)", "high polyreactivity"),
]

Now for a further sequence.
Query QVQLVESGGGLVQAGGSLRLSCAATGFTFGRYAMGWYRQAPGKERELVAAITWSGGSTYYADSVKGRFTISRDNAKNTVYLQMNSLKPEDTAVYYCNRLSNNREYDYWGQGTQVTVSS yields polyreactivity (PSR sort gate) of high polyreactivity

###

Test: yeast display, Sf9 membrane polyspecificity reagent, FACS + sequencing; frameworks hold sequencing errors
propertyLabel: polyreactivity (PSR sort gate)

Example entries begin here.
# orderedResidues, polyreactivity (PSR sort gate)
rows = [
    ("QVQLVESGGGLVQAGGSLRLSCAASGYTIYIYAMGWYRQAPGKEREFVATISRSGGSTSYADSVKGRFTISRDNAKNTVYLQMNSLKPEDTSVYYCAAEWGYYAVGAQYYYWGQGTQVTVSS", "high polyreactivity"),
    ("QVQLVESGGGLVQAGGSLRLSCAASGSIFGSNAMGWYRQAPGKERELVAAITNTGRTNYADSVKGRFTISRDNAKNTVYLQMNSLKPEDTAVYYCNTDCYEFTHFVGGWYQIIDYDYWGQGSQVTVSS", "low polyreactivity"),
    ("QVQLVESGGGLVQAGGSLRLSCAASGIIFKYYAMGWYRQAPGKERELVAAISSRSGRTYYADSVKGRFTISRDNAKNTVYLQMNSLKPEDTAVYYCNVQVQRSYPYGYWGQGTQVTVSS", "high polyreactivity"),
    ("QVQLVESGGGLDQAGGSLRLSCAASGIIFVENAMGWYRQAPGKERELVASGDSTYADSVKGRFTISRDNAKNTVYLKMNSRKPEDTAVYYCAAEVYVYHPFVHYDYWGQGTQVTVSS", "low polyreactivity"),
    ("QVQLVESGGGLVQAGGSLRLSCAASGRTLNYNAMGWYRQAPGKERELVAAITSSGRTYYADSVKGRFTISRDNAKNTVFLQMNSLKPEDTAVYYCAASPYGRSILVRYGYWGQGTQVTVSS", "high polyreactivity"),
]

Now look at this one.
Lab book: polyreactivity (PSR sort gate) of QVPLVESVGGLVQAGGSLRISCAASGSTLRGYAMGWYRKAPGKERELVAAISWRGGSTYYADSVKGRFTISRDNAKNTVYLQMNSLKPEDTAVYYCNALVAGHKYYTVTSKYDYWGQGTQLTVSS noted as high polyreactivity

###

Assay: yeast display, Sf9 membrane polyspecificity reagent, FACS + sequencing; frameworks hold sequencing errors
propertyLabel: polyreactivity (PSR sort gate)

# orderedResidues, result
data = [
    ("QVQLVESGGGLVQAGRSHRLSCAASGRTFKPYAMGWYRPAPGKERELVARISGSGGSTYYADSVKGRFTISRDYAKNTVYLQMNSLNPEDIAVYYCATTPYYWFDYWGQGRQVTVSS", "low polyreactivity"),
    ("QVQLVESGGGLVQAGGSLRLSCAASGRTFNGYALGSSRQAPGKERELVAAISGRGRSTRYADSVKGRFTISRDNAKNTVYLQMNSLNPEDTAVYYCNARGYSETQREYDSWGQGTQVTVSS", "high polyreactivity"),
    ("QVQLVESGGGLVQAGGSLRLSCAASGFTFERYAMGWYRQAPGKERELVAAIDWRGVNTYYADSVKGRFTISRDNAKNTVYLQMNSLKPEDTAVYYCNARAYGRYYWGQGTQVTVSS", "high polyreactivity"),
    ("QVQLVESGGGLVQAGGSLRLSCAASGSIFGYNAMGWYRQAPGKEREFVAAISWSGGRTYYADSVKGRFTISRDNAKNTVYLQMNSLKPEDTAVYYCAAPSRPAPRFDYWGQGTQVTVSS", "low polyreactivity"),
]

###

Experiment: yeast display, Sf9 membrane polyspecificity reagent, FACS + sequencing; frameworks hold sequencing errors

# orderedResidues, polyreactivity (PSR sort gate)
data = [
    ("QVQLVESGGGLVQAGGSLRLSCAASGSTFIAYTMGWYRQAPGKERELVAAITWSGGGTYYADSVKGRFTISRDNAKNTVYLQMNSLKPEDTAVYYCAKRGWRGYYWGQGTQVTVSS", "high polyreactivity"),
    ("QVQLVESGGGLVQAGGSLRLSCAAYGSTFIAYAMGWYRQAPGKERELVAAITRGGSTNYADSVKGRFTISRDNAKNTVYLQMNRLKPEDTAVYYCAADRSWGYWGRSRYDYWGQGTQVTVSS", "high polyreactivity"),
    ("QVQLVESGGGLVQAGGSLRLSCAASGSIFRGYTMGWYRQATGKERELVATISWSGGSTYYADSVKGRFTISRDNAKNTVYLQMNCLKPEDTAVYYCAAVWYLGIPYDYWGQGTQVTVSS", "high polyreactivity"),
]
